Assay: Cytotoxicity against human PBMC
Type: cell-based
EXPERIMENTAL_READOUT: CC50

Examples with answers:
Reported CC50 for C[C@@]1(O)[C@H](O)[C@@H](CO)O[C@H]1n1c2ncnc(N)c2c2c(=O)[nH]c(=O)[nH]c21 : what is it? > 100 µM

CC50 lookup needed for C[C@@]1(O)[C@H](O)[C@@H](CO)O[C@H]1n1c2ncnc(N)c2c2c(N)ncnc21 , thanks. > 100 µM

For the compound shown here, C[C@@]1(O)[C@H](O)[C@@H](CO)O[C@H]1n1c2ncnc(N)c2c2c(=O)[nH]c(S)nc21 , give the reported CC50. > 100 µM

What CC50 value was documented for this compound, Nc1ncnc2c1c1c(N)ncnc1n2[C@@H]1O[C@H](CO)[C@@H](O)[C@H]1O ? 53.8 µM

Dear colleague, I am looking for the recorded CC50 of the following compound: Nc1ncnc2c1c1c(=O)[nH]c(S)nc1n2[C@@H]1O[C@H](CO)[C@@H](O)[C@H]1O 2.9 µM

For every item below, please supply its CC50.
1. Nc1nc2c(c(=O)[nH]1)c1c(N)ncnc1n2[C@@H]1O[C@H](CO)[C@@H](O)[C@H]1O
2. Cc1cn([C@H]2C[C@H](N=[N+]=[N-])[C@@H](CO)O2)c(=O)[nH]c1=O [ZIDOVUDINE]
3. C[C@@]1(O)[C@H](O)[C@@H](CO)O[C@H]1n1c2ncnc(N)c2c2c(=O)[nH]c(N)nc21

["3.1 µM", "> 100 µM", "92.1 µM"]

----------
Consider the following compounds; for each one, report its EC50.
Tested on: Human immunodeficiency virus 1
Assay: Antiviral activity against Human immunodeficiency virus 1 LAI infected in human PBMC
Assay type: functional, organism-based
Details: Human immunodeficiency virus 1, M:B_Lai

Entry C[C@@]1(O)[C@H](O)[C@@H](CO)O[C@H]1n1c2ncnc(N)c2c2c(N)ncnc21 , system Human immunodeficiency virus 1: what EC50 was measured? ≥ 100 µM

Lab request: please report EC50 under test system Human immunodeficiency virus 1 for Nc1ncnc2c1c1c(N)ncnc1n2[C@@H]1O[C@H](CO)[C@@H](O)[C@H]1O > 100 µM

Short answer please: EC50, Human immunodeficiency virus 1, entry C[C@@]1(O)[C@H](O)[C@@H](CO)O[C@H]1n1c2ncnc(N)c2c2c(=O)[nH]c(=O)[nH]c21 > 100 µM

With those in mind, consider the next compound.
For the record C[C@@]1(O)[C@H](O)[C@@H](CO)O[C@H]1n1c2ncnc(N)c2c2c(=O)[nH]c(S)nc21 , what value of EC50 is listed for Human immunodeficiency virus 1? > 100 µM
